Target: T1, huNav1.7α(V331M) + β1-β2-β3 (human)
T1 construct: polyprotein as encoded; the entry already carries V331M; also called huNav1.7(V331M)-beta1-beta2-beta3
Assay: binding FACS, CHO FlpIn cells
Protocol: Binding of the ISVDs to cell-expressed Nav1.7α was detected via murine anti-Flag (Sigma, catalog #F1804). Briefly, cells were resuspended in FACS buffer (PBS, 10% FBS, NaN₃) and transferred to a 96-well V-bottom plate at 1×10^5 cells/well. Purified FLAG3-tagged ISVD was diluted in FACS buffer and added to the cells for 30 minutes at 4° C. […] Prior to the read-out, the samples were resuspended in 1 μg/mL propidium iodide (Sigma, catalog #P4170) to exclude dead cells. […]
pEC50: −log10 of the molar value.
Parameter threshold = 8. Response is 1 when pEC50 meets or exceeds it, else -1.

### Prompt Kindly determine if pEC50 recorded for F0103262C02 (VHH, entry includes the FLAG-HIS6 tag; also called F0103262C02 (parental)-FLAG-HIS6; F103262CO2) VHH: EVQLVESGGGLVQAGGSLTLSCAASGLPFGLYILGWIRRAPGKERDFVAAISRSGRDTVYANSVKGRFTISRDNAKNMVYLRMDNLRPEDTAAYYCAVDSVPRGTPTITESEYAIWGQGTLVTVSS is above or exactly 8.
### Response -1

### Prompt I'd appreciate it if you could say whether F0103464B09 (VHH, entry includes the FLAG-HIS6 tag; also called F0103464B09 (parental)-FLAG-HIS6; F103464B09) VHH: EVQLVESGGGLVQPGGSLRLSCATTSRAFIRDVFTGWYRRVPGKERELVARIYNGGNTNYADFAKGRFSISRDNAKKMVTLRMSNLKPEDTGVYYCLFSGTINTGREYRSGDYWGQGTLVTVSS has pEC50 at least equal to 8.
### Response 1

### Prompt Has F0103262B06 (VHH, entry includes the FLAG-HIS6 tag; also called F0103262B06 (parental)-FLAG-HIS6) VHH: EVQLVESGGGLVQPGGSLRLSCAGSTRTFSTYAMGWFRQAPGREREFVAHINFSGSSTRYADSVKGRFTISRDNAKNMGYLQMNSLKPEDTAVYYCAARWVAGPPRYDYEYWGQGTLVTVSS a recorded pEC50 greater than or equal to 8?
### Response -1

### Prompt Determine whether this binder has pEC50 no lower than 8: F0103275B05 (VHH, entry includes the FLAG-HIS6 tag; also called F0103275B05 (parental)-FLAG-HIS6) VHH: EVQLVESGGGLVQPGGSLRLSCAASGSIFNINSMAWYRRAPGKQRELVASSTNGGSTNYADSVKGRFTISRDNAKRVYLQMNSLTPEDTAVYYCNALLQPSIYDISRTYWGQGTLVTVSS
### Response -1

Each recorded value in this set is attributed to patent US20240002497A1.
